# methodNotes: in vivo
# Set-up: species or system mice
# assayContext: male, NODSCID 1L2RγKO, mouse, iv, total radioactivity, Spleen uptake
measuredParameter: tissue uptake at 120 h
Write your answer as a measured quantity: the number, then the unit.

Worked examples, 3 compounds total:
O=C(O)CCC[C@H](NC(=O)N[C@@H](CCCCNC(=O)[C@H](Cc1c2ccccc2cc2ccccc12)NC(=O)[C@H]1CC[C@H](CNC(=O)[C@H](CCCCNC(=O)CN2CCN(CC(=O)O)CCN(CC(=O)O)CCN(CC(=O)O)CC2)NC(=O)CNC(=O)CCCc2ccc(Cl)cc2)CC1)C(=O)O)C(=O)O [177Lu-HTK03153, metal not drawn]    1.53 %ID/g
COc1ccc(CCCC(=O)NCC(=O)N[C@@H](CCCCNC(=O)CN2CCN(CC(=O)O)CCN(CC(=O)O)CCN(CC(=O)O)CC2)C(=O)NC[C@H]2CC[C@H](C(=O)N[C@@H](Cc3c4ccccc4cc4ccccc34)C(=O)NCCCC[C@H](NC(=O)N[C@@H](CSCC(=O)O)C(=O)O)C(=O)O)CC2)cc1 [177Lu-HTK04048, metal not drawn]    0.92 %ID/g
COc1ccc(CCCC(=O)NCC(=O)N[C@@H](CCCCNC(=O)CN2CCN(CC(=O)O)CCN(CC(=O)O)CCN(CC(=O)O)CC2)C(=O)NC[C@H]2CC[C@H](C(=O)N[C@@H](Cc3c4ccccc4cc4ccccc34)C(=O)NCCCC[C@H](NC(=O)N[C@@H](CCCC(=O)O)C(=O)O)C(=O)O)CC2)cc1 [177Lu-HTK03170, metal not drawn]    0.49 %ID/g

Return tissue uptake at 120 h (reported value) for this compound: O=C(O)CCC[C@H](NC(=O)N[C@@H](CCCCNC(=O)[C@H](Cc1c2ccccc2cc2ccccc12)NC(=O)[C@H]1CC[C@H](CNC(=O)CN2CCN(CC(=O)O)CCN(CC(=O)O)CCN(CC(=O)O)CC2)CC1)C(=O)O)C(=O)O [177Lu-HTK03149, metal not drawn]
0.13 %ID/g

Dear colleague, please send me the reported tissue uptake at 120 h for COc1ccc(CCCC(=O)NCC(=O)N[C@@H](CCCCNC(=O)CN2CCN(CC(=O)O)CCN(CC(=O)O)CCN(CC(=O)O)CC2)C(=O)NC[C@H]2CC[C@H](C(=O)N[C@@H](Cc3c4ccccc4cc4ccccc34)C(=O)NCCCC[C@H](NC(=O)N[C@@H](COCC(=O)O)C(=O)O)C(=O)O)CC2)cc1 [177Lu-HTK04028, metal not drawn] when you can.
0.69 %ID/g

Attribution: patent US11504441B2
